Test system: PC-3 PIP/flu tumor-bearing mice
Test name: Biodistribution in PC-3 PIP/flu tumor-bearing mice
Condition context: 15 min p.i., i.v.; PSMA^pos xenograft
Each record here notes measured PC-3 PIP Tumor.
Parameter: PC-3 PIP Tumor (% IA/g)

molecule="O=C([O-])CN(CCN(CC(=O)[O-])Cc1cc(CCC(=O)NCCCCCC(=O)NCCCC[C@H](NC(=O)N[C@@H](CCC(=O)O)C(=O)O)C(=O)O)ccc1[O-])Cc1cc(CCC(=O)O)ccc1[O-].[68Ga+3] [^68Ga-PSMA-11]" recorded_result=31.5
molecule="O=C([O-])CN1CCN(CC(=O)[O-])CCN(CC(=O)NCC2CCC(C(=O)NC(Cc3ccc4ccccc4c3)C(=O)NCCCCC(NC(=O)NC(CCC(=O)O)C(=O)O)C(=O)O)CC2)CCN(CC(=O)[O-])CC1.[68Ga+3] (stereo not shown) [^68Ga-PSMA-617]" recorded_result=28.7
molecule="O=C([O-])CN1CCN(CC(=O)[O-])CCN(CC(=O)NCC2CCC(C(=O)N[C@@H](Cc3ccc4ccccc4c3)C(=O)NCCCC[C@H](NC(=O)N[C@@H](CCC(=O)O)C(=O)O)C(=O)O)CC2)CCN(CC(=O)[O-])CC1.[177Lu+3] (stereo partly shown) [^177Lu-PSMA-617]" recorded_result=32.3
molecule="O=C([O-])CN1CCN(CC(=O)[O-])CCN(CC(=O)NCC2CCC(C(=O)NC(Cc3ccc4ccccc4c3)C(=O)NCCCCC(NC(=O)NC(CCC(=O)O)C(=O)O)C(=O)O)CC2)CCN(CC(=O)[O-])CC1.[44Sc+3] (stereo not shown) [^44Sc-PSMA-617]" recorded_result=36.5

----------
Tested on: PC-3 PIP/flu tumor-bearing mice
Test name: Biodistribution in PC-3 PIP/flu tumor-bearing mice
Condition context: 2 h p.i., i.v.
Each record here notes measured Stomach.
Parameter: Stomach

molecule="O=C([O-])CN1CCN(CC(=O)[O-])CCN(CC(=O)NCC2CCC(C(=O)NC(Cc3ccc4ccccc4c3)C(=O)NCCCCC(NC(=O)NC(CCC(=O)O)C(=O)O)C(=O)O)CC2)CCN(CC(=O)[O-])CC1.[44Sc+3] (stereo not shown) [^44Sc-PSMA-617]" parameter=Stomach recorded_result="0.20 ± 0.05 % IA/g"
molecule="O=C([O-])CN1CCN(CC(=O)[O-])CCN(CC(=O)NCC2CCC(C(=O)N[C@@H](Cc3ccc4ccccc4c3)C(=O)NCCCC[C@H](NC(=O)N[C@@H](CCC(=O)O)C(=O)O)C(=O)O)CC2)CCN(CC(=O)[O-])CC1.[177Lu+3] (stereo partly shown) [^177Lu-PSMA-617]" parameter=Stomach recorded_result="0.08 ± 0.02 % IA/g"
molecule="O=C([O-])CN(CCN(CC(=O)[O-])Cc1cc(CCC(=O)NCCCCCC(=O)NCCCC[C@H](NC(=O)N[C@@H](CCC(=O)O)C(=O)O)C(=O)O)ccc1[O-])Cc1cc(CCC(=O)O)ccc1[O-].[68Ga+3] [^68Ga-PSMA-11]" parameter=Stomach recorded_result="0.35 ± 0.17 % IA/g"
molecule="O=C([O-])CN1CCN(CC(=O)[O-])CCN(CC(=O)NCC2CCC(C(=O)NC(Cc3ccc4ccccc4c3)C(=O)NCCCCC(NC(=O)NC(CCC(=O)O)C(=O)O)C(=O)O)CC2)CCN(CC(=O)[O-])CC1.[68Ga+3] (stereo not shown) [^68Ga-PSMA-617]" parameter=Stomach recorded_result="0.16 ± 0.11 % IA/g"

----------
System: PC-3 PIP/flu tumor-bearing mice
Test name: Biodistribution in PC-3 PIP/flu tumor-bearing mice
Condition context: 2 h p.i., i.v.
Parameter: Lung (% IA/g)

compound="O=C([O-])CN1CCN(CC(=O)[O-])CCN(CC(=O)NCC2CCC(C(=O)NC(Cc3ccc4ccccc4c3)C(=O)NCCCCC(NC(=O)NC(CCC(=O)O)C(=O)O)C(=O)O)CC2)CCN(CC(=O)[O-])CC1.[44Sc+3] (stereo not shown) [^44Sc-PSMA-617]" study_target="PC-3 PIP/flu tumor-bearing mice" parameter=Lung unit_descriptor="% IA/g" recorded_result=0.37
compound="O=C([O-])CN(CCN(CC(=O)[O-])Cc1cc(CCC(=O)NCCCCCC(=O)NCCCC[C@H](NC(=O)N[C@@H](CCC(=O)O)C(=O)O)C(=O)O)ccc1[O-])Cc1cc(CCC(=O)O)ccc1[O-].[68Ga+3] [^68Ga-PSMA-11]" study_target="PC-3 PIP/flu tumor-bearing mice" parameter=Lung unit_descriptor="% IA/g" recorded_result=0.31
compound="O=C([O-])CN1CCN(CC(=O)[O-])CCN(CC(=O)NCC2CCC(C(=O)NC(Cc3ccc4ccccc4c3)C(=O)NCCCCC(NC(=O)NC(CCC(=O)O)C(=O)O)C(=O)O)CC2)CCN(CC(=O)[O-])CC1.[68Ga+3] (stereo not shown) [^68Ga-PSMA-617]" study_target="PC-3 PIP/flu tumor-bearing mice" parameter=Lung unit_descriptor="% IA/g" recorded_result=0.20
compound="O=C([O-])CN1CCN(CC(=O)[O-])CCN(CC(=O)NCC2CCC(C(=O)N[C@@H](Cc3ccc4ccccc4c3)C(=O)NCCCC[C@H](NC(=O)N[C@@H](CCC(=O)O)C(=O)O)C(=O)O)CC2)CCN(CC(=O)[O-])CC1.[177Lu+3] (stereo partly shown) [^177Lu-PSMA-617]" study_target="PC-3 PIP/flu tumor-bearing mice" parameter=Lung unit_descriptor="% IA/g" recorded_result=0.15

----------
Tested on: PC-3 PIP/flu tumor-bearing mice
Test name: Biodistribution in PC-3 PIP/flu tumor-bearing mice
Condition context: 15 min p.i., i.v.; PSMA^neg xenograft
Parameter: PC-3 flu Tumor (% IA/g)

compound="O=C([O-])CN1CCN(CC(=O)[O-])CCN(CC(=O)NCC2CCC(C(=O)NC(Cc3ccc4ccccc4c3)C(=O)NCCCCC(NC(=O)NC(CCC(=O)O)C(=O)O)C(=O)O)CC2)CCN(CC(=O)[O-])CC1.[68Ga+3] (stereo not shown) [^68Ga-PSMA-617]" parameter="PC-3 flu Tumor" recorded_result=2.30
compound="O=C([O-])CN1CCN(CC(=O)[O-])CCN(CC(=O)NCC2CCC(C(=O)NC(Cc3ccc4ccccc4c3)C(=O)NCCCCC(NC(=O)NC(CCC(=O)O)C(=O)O)C(=O)O)CC2)CCN(CC(=O)[O-])CC1.[44Sc+3] (stereo not shown) [^44Sc-PSMA-617]" parameter="PC-3 flu Tumor" recorded_result=2.14
compound="O=C([O-])CN(CCN(CC(=O)[O-])Cc1cc(CCC(=O)NCCCCCC(=O)NCCCC[C@H](NC(=O)N[C@@H](CCC(=O)O)C(=O)O)C(=O)O)ccc1[O-])Cc1cc(CCC(=O)O)ccc1[O-].[68Ga+3] [^68Ga-PSMA-11]" parameter="PC-3 flu Tumor" recorded_result=2.19
compound="O=C([O-])CN1CCN(CC(=O)[O-])CCN(CC(=O)NCC2CCC(C(=O)N[C@@H](Cc3ccc4ccccc4c3)C(=O)NCCCC[C@H](NC(=O)N[C@@H](CCC(=O)O)C(=O)O)C(=O)O)CC2)CCN(CC(=O)[O-])CC1.[177Lu+3] (stereo partly shown) [^177Lu-PSMA-617]" parameter="PC-3 flu Tumor" recorded_result=2.49

----------
System: PC-3 PIP/flu tumor-bearing mice
Test name: Biodistribution in PC-3 PIP/flu tumor-bearing mice
Condition context: 2 h p.i., i.v.
Parameter: Kidneys (% IA/g)

compound="O=C([O-])CN1CCN(CC(=O)[O-])CCN(CC(=O)NCC2CCC(C(=O)N[C@@H](Cc3ccc4ccccc4c3)C(=O)NCCCC[C@H](NC(=O)N[C@@H](CCC(=O)O)C(=O)O)C(=O)O)CC2)CCN(CC(=O)[O-])CC1.[177Lu+3] (stereo partly shown) [^177Lu-PSMA-617]" parameter=Kidneys recorded_result=3.97
compound="O=C([O-])CN1CCN(CC(=O)[O-])CCN(CC(=O)NCC2CCC(C(=O)NC(Cc3ccc4ccccc4c3)C(=O)NCCCCC(NC(=O)NC(CCC(=O)O)C(=O)O)C(=O)O)CC2)CCN(CC(=O)[O-])CC1.[68Ga+3] (stereo not shown) [^68Ga-PSMA-617]" parameter=Kidneys recorded_result=3.48
compound="O=C([O-])CN(CCN(CC(=O)[O-])Cc1cc(CCC(=O)NCCCCCC(=O)NCCCC[C@H](NC(=O)N[C@@H](CCC(=O)O)C(=O)O)C(=O)O)ccc1[O-])Cc1cc(CCC(=O)O)ccc1[O-].[68Ga+3] [^68Ga-PSMA-11]" parameter=Kidneys recorded_result=58.8
compound="O=C([O-])CN1CCN(CC(=O)[O-])CCN(CC(=O)NCC2CCC(C(=O)NC(Cc3ccc4ccccc4c3)C(=O)NCCCCC(NC(=O)NC(CCC(=O)O)C(=O)O)C(=O)O)CC2)CCN(CC(=O)[O-])CC1.[44Sc+3] (stereo not shown) [^44Sc-PSMA-617]" parameter=Kidneys recorded_result=5.97
